# system name: SOCS2-ElonginB-ElonginC complex, wild-type (human | , UniProt O14508 32-198; Q15370 1-104; Q15369 17-112)
# Sequence (O14508 32-198, chain 1 of 3): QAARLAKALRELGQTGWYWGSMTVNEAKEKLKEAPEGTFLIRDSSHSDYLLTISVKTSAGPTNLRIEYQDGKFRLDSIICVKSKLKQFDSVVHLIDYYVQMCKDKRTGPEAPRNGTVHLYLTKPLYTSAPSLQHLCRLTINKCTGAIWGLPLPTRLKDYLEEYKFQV
# Sequence (Q15370 1-104, chain 2 of 3): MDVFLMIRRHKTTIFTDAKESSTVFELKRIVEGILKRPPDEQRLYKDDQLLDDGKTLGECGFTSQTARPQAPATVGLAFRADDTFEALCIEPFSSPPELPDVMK
# Sequence (Q15369 17-112, chain 3 of 3): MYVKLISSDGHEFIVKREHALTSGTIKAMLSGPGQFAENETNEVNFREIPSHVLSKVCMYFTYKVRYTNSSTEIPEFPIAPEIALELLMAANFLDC
# assay text: SPR; biotinylated SBC (wild-type or mutant) immobilised, peptide injected at 0.08-60 μM; 20 mM HEPES pH 7.5, 150 mM NaCl, 1 mM TCEP, 0.005% Tween20, 10 °C; steady-state affinity, 1:1 model
# reported conditions: both partners purified
Where no end group is shown, it is not given here. [ ]: non-standard residue; d: D form. pY = N[C@@H](Cc1ccc(OP(=O)(O)O)cc1)C(=O)O
test readout: log10 Kd (log10 of the value in µM)

>  <binder>
PRPD[pY]TSIHIV-NH2 [GHR_pY595 peptide V(−3)R]

>  <numeric result>
0.95

$$$$
>  <binder>
PVPD[pY]ASIHIV-NH2 [GHR_pY595 peptide, alanine at pY(+1)]

>  <numeric result>
0.00

$$$$
>  <binder>
ASFA[pY]TILDPS-NH2 [EpoR_pY426 peptide, alanine at pY(−1)]

>  <numeric result>
1.34

$$$$
>  <binder>
ASFE[pY]TALDPS-NH2 [EpoR_pY426 peptide, alanine at pY(+2)]

>  <numeric result>
1.49

$$$$
>  <binder>
PYPD[pY]TSIHIV-NH2 [GHR_pY595 peptide V(−3)Y]

>  <numeric result>
0.52

$$$$
>  <binder>
PVPD[pY]TSIAIV-NH2 [GHR_pY595 peptide, alanine at pY(+4)]

>  <numeric result>
0.83

$$$$
>  <binder>
PVPD[pY]TSAHIV-NH2 [GHR_pY595 peptide, alanine at pY(+3)]

>  <numeric result>
0.57

$$$$
